Provide the recorded median enrichment for the entries that follow.
System: HEK293T
Assay: median enrichment of reporter reads in eGFP-reduced (low/intermediate) vs eGFP-high sorted cells (eGFP-extension fusion abundance) (ratio); higher = stronger loss of eGFP-fusion protein abundance (more destabilising extension)
Numbers only.

A selection of reference data follows.
>  <SEQUENCE_TEXT>
YPNIIQGTEIKELRFKHKCLAQTYL [EEF1E1]

>  <MEASURED_TARGET>
HEK293T

>  <ENDPOINT_VALUE>
7.38

$$$$
>  <SEQUENCE_TEXT>
LASCGPGNEMELTA [TSSK1B]

>  <MEASURED_TARGET>
HEK293T

>  <ENDPOINT_VALUE>
1.49

$$$$
>  <SEQUENCE_TEXT>
YRRIYVLFKQEKVTLPMLSPLHNI [CDH10]

>  <MEASURED_TARGET>
HEK293T

>  <ENDPOINT_VALUE>
8.74

$$$$
>  <SEQUENCE_TEXT>
GHACLPNTIWSWTTFDTNQSYWTRPLEDLKYTSHAVVYLGCDSLSNAALGKDESDLQGEKCNHTWAPVNYGTEGPNCSPKGAA [APOBEC2]

>  <MEASURED_TARGET>
HEK293T

>  <ENDPOINT_VALUE>
3.91

$$$$
>  <SEQUENCE_TEXT>
ENSSSTMDFRLLVAVLT [ELF2]

>  <MEASURED_TARGET>
HEK293T;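 also: lentiviral eGFP-IRES-mCherry reporter pool sorted by FACS 96 h post-transduction, gated on mCherry-high cells, Illumina read counts normalized per million, median across four biological replicates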

>  <ENDPOINT_VALUE>
7.29

$$$$

Entry IIIIIIII [Ile08] — recorded median enrichment = 5.38
